# test.summary: Selectivity index, ratio of CC50 for cytotoxicity against human MT4 cells to EC50 for antiviral activity against HIV2 ROD infected in human MT4 cells
# Format: toxicity, cell-based
# experimental.conditions: read-out: Ratio CC50/EC50
Mark 1 for selectivity ratio under 10, 0 if at or over.

Some solved entries appear below for comparison.
COc1ccc(-n2c([C@H](Cc3ccccc3)NC(=O)CN3CCN(S(=O)(=O)c4ccc([N+](=O)[O-])cc4)CC3=O)nc3ccccc3c2=O)cc1 | 0
COc1ccc(-n2c(SCc3ccc(S(N)(=O)=O)cc3)nnc2[C@H](Cc2ccccc2)NC(=O)Cc2c(C)[nH]c3ccccc23)cc1 | 0

## Task hey, is selectivity ratio for `COc1ccc(-n2c([C@H](Cc3cc(F)cc(F)c3)NC(=O)CN3CCN(S(=O)(=O)c4ccc([N+](=O)[O-])cc4)CC3)nc3cc(Cl)ccc3c2=O)cc1` lower than 10 or not?
## Result 0

## Task hey, is selectivity ratio for `COc1ccc(-n2c([C@H](Cc3ccccc3)NC(=O)CN3CCN(S(=O)(=O)c4ccc(N)cc4)CC3)nc3ccccc3c2=O)cc1` lower than 10 or not?
## Result 0

## Task hey, is selectivity ratio for `COc1ccc(-n2c(SCCF)nnc2[C@H](Cc2ccccc2)NC(=O)Cc2c(C)[nH]c3ccccc23)cc1` lower than 10 or not?
## Result 1

## Task hey, is selectivity ratio for `COc1ccc(-n2c(SCC#N)nnc2[C@H](Cc2ccccc2)NC(=O)Cc2c(C)[nH]c3ccccc23)cc1` lower than 10 or not?
## Result 0

## Task hey, is selectivity ratio for `COc1ccc(N(C)C(=O)[C@H](Cc2cc(F)cc(F)c2)NC(=O)CN(C(=O)Cc2ccc(B3OC(C)(C)C(C)(C)O3)cc2)C2CC2)cc1` lower than 10 or not?
## Result 1

## Task hey, is selectivity ratio for `COc1ccc(N(C)C(=O)[C@H](Cc2cc(F)cc(F)c2)NC(=O)CN2CCN(C(=O)Cc3c[nH]c4ccc(O)cc34)CC2=O)cc1` lower than 10 or not?
## Result 1

## Task hey, is selectivity ratio for `COc1ccc(-n2c(SCCCN3CCOCC3)nnc2[C@H](Cc2ccccc2)NC(=O)Cc2c(C)[nH]c3ccccc23)cc1` lower than 10 or not?
## Result 0

## Task hey, is selectivity ratio for `COc1ccc(N(C)C(=O)[C@H](Cc2ccccc2)NC(=O)CN2CCN(C(=O)Cc3c[nH]c4ccc(OC)cc34)CC2=O)cc1` lower than 10 or not?
## Result 1

## Task hey, is selectivity ratio for `COC(=O)CSc1nnc([C@H](Cc2ccccc2)NC(=O)Cc2c(C)[nH]c3ccccc23)n1-c1ccc(OC)cc1` lower than 10 or not?
## Result 0

## Task hey, is selectivity ratio for `COc1ccc(N(C)C(=O)[C@H](Cc2cc(F)cc(F)c2)NC(=O)CN(Cc2ccc(F)cc2)C(=O)Cc2c[nH]c3ccc(Br)cc23)cc1` lower than 10 or not?
## Result 1

## Task hey, is selectivity ratio for `COc1ccc(-n2c(SCc3ccccn3)nnc2[C@H](Cc2ccccc2)NC(=O)Cc2c(C)[nH]c3ccccc23)cc1` lower than 10 or not?
## Result 1

## Task hey, is selectivity ratio for `C#CCSc1nnc([C@H](Cc2ccccc2)NC(=O)Cc2c(C)[nH]c3ccccc23)n1-c1ccc(OC)cc1` lower than 10 or not?
## Result 1

## Task hey, is selectivity ratio for `COc1ccc(N(C)C(=O)[C@H](Cc2ccccc2)NC(=O)Cn2ccc(NC(=O)c3ccccc3)cc2=O)cc1` lower than 10 or not?
## Result 0

----------
# test.summary: Cytotoxicity against human MT4 cells assessed as reduction in cell viability incubated for 5 days by MTT assay
# Assay type: toxicity, cell-based
# experimental.conditions: MT4 cells, time 5 day
observed.property: CC50 at 120 h

Would you please look over these solved cases?
COc1ccc(-n2c([C@H](Cc3cc(F)cc(F)c3)NC(=O)CN3CCN(S(=O)(=O)c4ccc([N+](=O)[O-])cc4)CC3)nc3cc(Cl)ccc3c2=O)cc1 | > 163 µM
COc1ccc(N(C)C(=O)[C@H](Cc2ccccc2)NC(=O)CN2CCN(C(=O)Cc3c[nH]c4ccc(O)cc34)CC2=O)cc1 | > 209 µM

Next compound, CC50 at 120 h to be filled in.
## Task Tell me CC50 at 120 h reported for `COc1ccc(N(C)C(=O)[C@H](Cc2cc(F)cc(F)c2)NC(=O)CN(Cc2ccc(C#N)cc2)C(=O)Cc2ccc3ccccc3c2)cc1`
## Result > 189 µM

----------
# test.summary: Selectivity index, ratio of CC50 for cytotoxicity against human MT4 cells to EC50 for antiviral activity against HIV2 ROD infected in human MT4 cells
# Format: toxicity, cell-based
# experimental.conditions: read-out: Ratio CC50/EC50
// values below are reported selectivity ratio

Would you please look over these solved cases?
COc1ccc(N(C)C(=O)[C@H](Cc2ccccc2)NC(=O)CN2CCN(C(=O)c3ccc(NC(=O)C(F)(F)F)cc3)CC2=O)cc1 | > 13.1
COc1ccc(N(C)C(=O)[C@H](Cc2cc(F)cc(F)c2)NC(=O)Cn2ccc(N)cc2=O)cc1 | > 17.1
COc1ccc(N(C)C(=O)[C@H](Cc2ccccc2)NC(=O)CN2CCN(C(=O)Cc3c[nH]c4ccc(Br)cc34)CC2=O)cc1 | < 1

## Task Tell me selectivity ratio reported for `COc1ccc(N(C)C(=O)[C@H](Cc2cc(F)cc(F)c2)NC(=O)CN(Cc2ccc(F)cc2)C(=O)Cc2cccc3ccccc23)cc1`
## Result > 33

----------
// values below are reported CC50 at 120 h
# test.summary: Cytotoxicity against human MT4 cells assessed as reduction in cell viability incubated for 5 days by MTT assay
# Assay type: toxicity, cell-based
# experimental.conditions: MT4 cells, time 5 day
The reply should be a number in µM, with the unit left off.

Would you please look over these solved cases?
COc1ccc(N(C)C(=O)[C@H](Cc2cc(F)cc(F)c2)NC(=O)CN(Cc2ccc(C#N)cc2)C(=O)Cc2c[nH]c3ccc(F)cc23)cc1 | 148
COc1ccc(N(C)C(=O)[C@H](Cc2cc(F)cc(F)c2)NC(=O)CN(C(=O)Cc2ccc(B3OC(C)(C)C(C)(C)O3)cc2)C2CC2)cc1 | 89

## Task Tell me CC50 at 120 h reported for `COc1ccc(N(C)C(=O)[C@H](Cc2ccccc2)NC(=O)CN2CCN(C(=O)Cc3c[nH]c4ccc(Br)cc34)CC2=O)cc1`
## Result 16.4

## Task Tell me CC50 at 120 h reported for `COc1ccc(N(C)C(=O)[C@H](Cc2ccccc2)NC(=O)Cn2ccc(NC(=O)c3ccc([N+](=O)[O-])cc3)cc2=O)cc1`
## Result 31.9

----------
# System: Human immunodeficiency virus 1
# test.summary: Antiviral activity against HIV1 IIIB infected in human MT4 cells assessed as reduction in virus induced cytopathic effect measured after 5 days by MTT assay
# Format: functional, organism-based
# experimental.conditions: Human immunodeficiency virus 1, IIIB, MT4, 120 h
pEC50: −log10 of the molar value.
Returns one of label 1 or label 0; label 1 when pEC50 is >= 5.

Some solved entries appear below for comparison.
COc1ccc(-n2c(SCc3ccc(B(O)O)cc3)nnc2[C@H](Cc2ccccc2)NC(=O)Cc2c(C)[nH]c3ccccc23)cc1 | label 1
COc1ccc(-n2c(SCCF)nnc2[C@H](Cc2ccccc2)NC(=O)Cc2c(C)[nH]c3ccccc23)cc1 | label 1
COc1ccc(N(C)C(=O)[C@H](Cc2ccccc2)NC(=O)Cn2ccc(NC(=O)c3ccc(C#N)cc3)cc2=O)cc1 | label 0
Nc1ccc(S(=O)(=O)N2CCN(CC(=O)N[C@@H](Cc3ccccc3)c3nc4ccccc4c(=O)n3-c3ccc(S(=O)(=O)N4CCOCC4)cc3)CC2)cc1 | label 1
COc1ccc(N(C)C(=O)[C@H](Cc2ccccc2)NC(=O)Cn2ccc(NC(=O)c3ccc(Cl)cc3)cc2=O)cc1 | label 0

## Task Reported pEC50 reaches at least 5 for `COc1ccc(N(C)C(=O)[C@H](Cc2ccccc2)NC(=O)CN2CCN(C(=O)Cc3c[nH]c4ccc(F)cc34)CC2=O)cc1` ?
## Result label 0

## Task Reported pEC50 reaches at least 5 for `COc1ccc(N(C)C(=O)[C@H](Cc2cc(F)cc(F)c2)NC(=O)CN(CC2CCCCC2)C(=O)Cc2c[nH]c3ccc(Br)cc23)cc1` ?
## Result label 0

## Task Reported pEC50 reaches at least 5 for `COc1ccc(N(C)C(=O)[C@H](Cc2ccccc2)NC(=O)Cn2ccc(N)cc2=O)cc1` ?
## Result label 0

----------
# test.summary: Cytotoxicity against human MT4 cells assessed as reduction in cell viability incubated for 5 days by MTT assay
# Assay type: toxicity, cell-based
# experimental.conditions: MT4 cells, time 5 day
// values below are reported CC50 at 120 h

COc1ccc(N(C)C(=O)[C@H](Cc2cc(F)cc(F)c2)NC(=O)CN(Cc2ccc(F)cc2)C(=O)Cc2cccc3ccccc23)cc1 | > 191 µM
COc1ccc(-n2c([C@H](Cc3cc(F)cc(F)c3)NC(=O)CN3CCN(S(=O)(=O)c4ccc(N)cc4)CC3)nc3cc(S(C)(=O)=O)ccc3c2=O)cc1 | > 160 µM

Next compound, CC50 at 120 h to be filled in.
## Task Tell me CC50 at 120 h reported for `COc1ccc(N(C)C(=O)[C@H](Cc2cc(F)cc(F)c2)NC(=O)Cn2ccc(N)cc2=O)cc1`
## Result > 266 µM

These measurements were taken from ChEMBL document CHEMBL5344428.
